test system: NCI-H2228; assay: relative viability (nuclei count vs DMSO), 5 days (fraction); higher = more cells survive; details: first compound 0.1 µM
Field 'label' (enum: class 1 / class 0). Set to class 1 when relative viability is strictly under 0.5; else class 0.

input: Dear reviewer, please state whether CCN(CC)CCCCNc1ncc2cc(-c3cc(OC)cc(OC)c3)c(NC(=O)NC(C)(C)C)nc2n1 + COc1cccc2cc(-c3nc([C@H]4CC[C@H](C(=O)O)CC4)n4ncnc(N)c34)[nH]c12 [OSI-027] (partner 0.5 µM) has relative viability strictly beneath 0.5.
output: class 0

input: Dear reviewer, please state whether CCN(CC)CCCCNc1ncc2cc(-c3cc(OC)cc(OC)c3)c(NC(=O)NC(C)(C)C)nc2n1 + CS(=O)(=O)CCNCc1ccc(-c2ccc3ncnc(Nc4ccc(OCc5cccc(F)c5)c(Cl)c4)c3c2)o1 [Lapatinib] (partner 2 µM) has relative viability strictly beneath 0.5.
output: class 0

input: Dear reviewer, please state whether O=c1cc(N2CCOCC2)oc2c(-c3cccc4c3sc3ccccc34)cccc12 + Cc1cc(Nc2cc(N3CCN(C)CC3)nc(Sc3ccc(NC(=O)C4CC4)cc3)n2)n[nH]1 [Tozasertib] (partner 0.1 µM) has relative viability strictly beneath 0.5.
output: class 1

input: Dear reviewer, please state whether O=c1cc(N2CCOCC2)oc2c(-c3cccc4c3sc3ccccc34)cccc12 + C[C@]1(O)C[C@@H](c2nc(-c3ccc4ccc(-c5ccccc5)nc4c3)c3c(N)nccn32)C1 [Linsitinib] (partner 1 µM) has relative viability strictly beneath 0.5.
output: class 0

input: Dear reviewer, please state whether O=c1cc(N2CCOCC2)oc2c(-c3cccc4c3sc3ccccc34)cccc12 + CCNC(=O)c1noc(-c2cc(C(C)C)c(O)cc2O)c1-c1ccc(CN2CCOCC2)cc1 [Luminespib] (partner 0.01 µM) has relative viability strictly beneath 0.5.
output: class 1

input: Dear reviewer, please state whether CCN(CC)CCCCNc1ncc2cc(-c3cc(OC)cc(OC)c3)c(NC(=O)NC(C)(C)C)nc2n1 + C[C@@H](Oc1cc(-c2cnn(C3CCNCC3)c2)cnc1N)c1c(Cl)ccc(F)c1Cl [Crizotinib] (partner 1 µM) has relative viability strictly beneath 0.5.
output: class 1

input: Dear reviewer, please state whether CCN(CC)CCCCNc1ncc2cc(-c3cc(OC)cc(OC)c3)c(NC(=O)NC(C)(C)C)nc2n1 + CC(=O)Nc1cccc(-n2c(=O)n(C3CC3)c(=O)c3c(Nc4ccc(I)cc4F)n(C)c(=O)c(C)c32)c1 [Trametinib] (partner 0.02 µM) has relative viability strictly beneath 0.5.
output: class 1

input: Dear reviewer, please state whether CCN(CC)CCCCNc1ncc2cc(-c3cc(OC)cc(OC)c3)c(NC(=O)NC(C)(C)C)nc2n1 + O=C(CCCCCCC(=O)Nc1ccccc1)NO [Vorinostat] (partner 1 µM) has relative viability strictly beneath 0.5.
output: class 0
